# maps each entry to its Ki
biological target: human CB1 receptor (Homo sapiens); assay: Human CB1 receptor binding, [3H] CP-55,940 displacement on HEK cell membranes; design: expressed in transfected cells; host or cells: HEK cells, doxycycline-induced; membrane preparation; conditions: CB1 Ki
Kindly answer with a numeric value in nM, unit omitted.

>  <COMPOUND>
CC(C)(C)[C@H](NC(=O)c1nn(Cc2ccc(F)cc2)c2ccccc12)C(=O)NCC1=NCCN1 [Example 305]

>  <SYSTEM_TESTED>
human CB1 receptor (Homo sapiens)

>  <OBSERVED_RESULT>
18

$$$$
>  <COMPOUND>
CC(C)(C)C(NC(=O)c1nn(Cc2ccc(F)cc2)c2ccccc12)C(=O)NCCO (stereo not shown) [Example 81]

>  <SYSTEM_TESTED>
human CB1 receptor (Homo sapiens)

>  <OBSERVED_RESULT>
0.32

$$$$

Moving on to another compound below.
Which Ki value belongs to CC(C)(C)[C@H](NC(=O)c1nn(Cc2ccc(F)cc2)c2ccccc12)C(=O)N[C@H]1CC[C@@H](O)C1 [Example 288] ?
1.18

###

molecular target: human CB1 receptor (Homo sapiens); assay: [35S] GTPγS binding on membranes of CHO cells expressing the human CB1 receptor (agonism); assay type: biochemical; parameters: expressed in transfected cells; membrane preparation; conditions: human CB1, CHO cell membranes, read-out: GTPγS EC50
Output Yes for records whose EC50 is lower than 10 nM, No for records at or above 10 nM.

Use these answered entries as a reference point.
>  <COMPOUND>
CC(C)(C)[C@H](NC(=O)c1nn(Cc2ccc(F)cc2)c2ccccc12)C(=O)NCCOc1ccnc(N)n1

>  <LABEL_VALUE>
No

$$$$
>  <COMPOUND>
CC(C)(C)[C@H](NC(=O)c1nn(Cc2ccc(F)cc2)c2ccccc12)C(=O)NCc1nc(-c2cnccn2)no1

>  <LABEL_VALUE>
Yes

$$$$
>  <COMPOUND>
CC(C)(C)[C@H](NC(=O)c1nn(Cc2ccc(C#N)cc2)c2c(F)cccc12)C(=O)NCCNS(=O)(=O)C1CC1

>  <LABEL_VALUE>
Yes

$$$$
>  <COMPOUND>
CC(C)(C)[C@H](NC(=O)c1nn(Cc2ccc(C#N)cc2)c2c(F)cccc12)C(=O)N[C@@H]1CCc2ccccc21

>  <LABEL_VALUE>
No

$$$$
>  <COMPOUND>
CC(C)(C)C(NC(=O)c1nn(Cc2ccc(F)cc2)c2ccccc12)c1nnc(CC(N)=O)o1 (stereo not shown)

>  <LABEL_VALUE>
No

$$$$

Let's switch to this compound now.
Input `CC(C)(C)[C@H](NC(=O)c1nn(Cc2ccc(F)cc2)c2ccccc12)C(=O)NCCc1nnc(C(N)=O)o1` ; condition: EC50 strictly below 10 nM. Does it hold?
Yes

###

molecular target: human CB1 receptor (Homo sapiens, UniProt P21554); assay: Human CB1 receptor binding, [3H] CP-55,940 displacement on HEK cell membranes; set-up: expressed in transfected cells; host or cells: HEK cells, doxycycline-induced; membrane preparation; details: CB1 Ki
Sequence (P21554 whole entry): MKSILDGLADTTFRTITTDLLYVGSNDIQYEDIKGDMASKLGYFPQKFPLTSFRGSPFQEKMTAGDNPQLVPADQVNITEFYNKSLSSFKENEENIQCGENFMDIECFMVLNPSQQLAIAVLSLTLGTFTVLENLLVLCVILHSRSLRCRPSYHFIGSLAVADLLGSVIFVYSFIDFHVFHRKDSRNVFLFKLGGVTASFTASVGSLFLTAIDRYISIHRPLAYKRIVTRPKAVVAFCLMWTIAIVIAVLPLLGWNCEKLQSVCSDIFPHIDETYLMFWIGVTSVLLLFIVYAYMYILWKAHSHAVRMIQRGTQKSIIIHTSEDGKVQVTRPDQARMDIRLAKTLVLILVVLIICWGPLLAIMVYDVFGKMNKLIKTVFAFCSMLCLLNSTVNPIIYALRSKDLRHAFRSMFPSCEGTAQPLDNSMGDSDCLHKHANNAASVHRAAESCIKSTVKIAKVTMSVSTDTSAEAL
MEASUREMENT_KIND: Ki (nM)
Enter your answer as a number in nM; do not include the unit.

Past entries and their recorded results:
>  <COMPOUND>
CC(C)(C)C(NC(=O)c1nn(Cc2ccc(C#N)cc2)c2c(Cl)cccc12)C(=O)NCC(N)=O (centres unmarked)

>  <Ki, nM>
14.2

$$$$
>  <COMPOUND>
CC(C)(C)[C@H](NC(=O)c1nn(Cc2ccc(F)c(F)c2)c2ccccc12)C(=O)NCCC(N)=O

>  <Ki, nM>
17

$$$$
>  <COMPOUND>
CC(C)(C)[C@H](NC(=O)c1nn(Cc2ccc(F)cc2)c2ccccc12)C(=O)NCC(=O)O

>  <Ki, nM>
84.2

$$$$
>  <COMPOUND>
CC(C)(C)[C@H](NC(=O)c1nn(Cc2ccc(C#N)cc2)c2c(F)cccc12)C(=O)NC1CC1

>  <Ki, nM>
3.78

$$$$
>  <COMPOUND>
CC(C)(C)C(NC(=O)c1nn(Cc2ccc(F)cc2)c2ccccc12)C(=O)N1CCC(O)CC1 (centres unmarked)

>  <Ki, nM>
0.55

$$$$
>  <COMPOUND>
CC(C)(C)C(NC(=O)c1nn(Cc2ccc(C#N)cc2)c2c(Cl)cccc12)C(=O)NCC(O)CO (centres unmarked)

>  <Ki, nM>
10.2

$$$$

We next turn to a different compound, shown below.
Please tell me: Ki of `CC(C)(C)[C@H](NC(=O)c1nn(Cc2ccc(F)cc2)c2c(F)cc(Cl)cc12)C(=O)NC[C@H](O)CO` , system human CB1 receptor (Homo sapiens, UniProt P21554)?
16.5

###

Target: UniProt:P21554
Test: Human CB1 receptor binding, [3H] CP-55,940 displacement on HEK cell membranes
Design: expressed in transfected cells; host or cells: HEK cells, doxycycline-induced; membrane preparation
Settings: read-out: CB1 Ki
Description: The Human CB1 receptor binding affinity and other biological activities of the compounds of this invention are determined by the following procedures. […] Protein concentration was determined using the Micro-BCA Protein Assay Kit (Pierce, Rockford, Ill.) using BSA as a standard. […] Binding experiments: 50 μl of test compound was incubated with 50 μl of [^3H] […] Nonspecific binding was determined by incubation with 50 μM WIN-55, 212-2 (Tocris, Ellisville, Mo.). […]
Each record here notes measured log10(Ki).
Scale: log10; quantity: Ki; unit before log: nM

What measured log10(Ki) is associated with CC(C)(C)[C@H](NC(=O)c1nn(Cc2ccc(F)cc2)c2ccccc12)C(=O)NCc1cc(C2CCC2)[nH]n1 [Example 420] on UniProt:P21554?
1.05

Item: CC(C)(C)[C@H](NC(=O)c1nn(Cc2ccc(C#N)cc2F)c2c(F)cccc12)C(=O)NCc1nnc(C(N)=O)o1 [Example 375]
0.90

Now this one: CC(C)(C)[C@H](NC(=O)c1nn(Cc2ccc(F)cc2)c2ccccc12)C(=O)NCC(=O)N1C[C@@H](O)[C@H](O)C1 [Example 378]
2.20

Follow-up item: CC(C)(C)[C@H](NC(=O)c1nn(Cc2ccc(F)cc2)c2ccccc12)C(=O)N1CC(CNC(N)=O)C1 [Example 346]
0.71

Request: COc1cc(CNC(=O)[C@@H](NC(=O)c2nn(Cc3ccc(C#N)cc3)c3ccccc23)C(C)(C)C)on1 [Example 311]
2.17

Next entry: CC(C)(C)[C@H](NC(=O)c1nn(Cc2ccc(C#N)cc2)c2c(F)cccc12)C(=O)NCc1nnc(C(N)=O)o1 [Example 116]
1.13

Again, but for CC(C)(C)[C@H](NC(=O)c1nn(Cc2ccc(F)cc2)c2c(F)cccc12)C(=O)NCCN1CCNC(=O)C1 [Example 474]
1.61

Please answer likewise for CC(C)NS(=O)(=O)CCNC(=O)[C@@H](NC(=O)c1nn(Cc2ccc(F)cc2)c2ccccc12)C(C)(C)C [Example 395]
1.61

Also CC(C)(C)[C@H](NC(=O)c1nn(Cc2ccc(F)cc2)c2ccccc12)C(=O)N1CCCC(C(=O)NCCO)C1 (stereo partly drawn) [Example 277] , if possible.
1.50

###

Listing of entries alongside the reported log10 of EC50.
target: human CB1 receptor (Homo sapiens); assay: [35S] GTPγS binding on membranes of CHO cells expressing the human CB1 receptor (agonism); type: biochemical; set-up: expressed in transfected cells; membrane preparation; conditions: GTPγS EC50, human CB1, CHO cell membranes
Recorded EC50 (log10, nM)

>  <COMPOUND>
Cc1nnc(CNC(=O)[C@@H](NC(=O)c2nn(Cc3ccc(F)cc3)c3ccccc23)C(C)(C)C)o1

>  <log10 of EC50>
0.41

$$$$
>  <COMPOUND>
CC(C)(C)[C@H](NC(=O)c1nn(Cc2ccc(C#N)cc2)c2ccccc12)C(=O)NCC(F)(F)F

>  <log10 of EC50>
0.74

$$$$
>  <COMPOUND>
CC(C)(C)[C@H](NC(=O)c1nn(Cc2ccc(F)cc2)c2ccccc12)C(=O)N1CCC(F)CC1

>  <log10 of EC50>
1.14

$$$$
>  <COMPOUND>
CC(C)(C)[C@H](NC(=O)c1nn(Cc2ccc(F)cc2)c2ccc(Cl)cc12)C(=O)NCCS(N)(=O)=O

>  <log10 of EC50>
2.00

$$$$
>  <COMPOUND>
CC(C)(C)[C@H](NC(=O)c1nn(Cc2ccc(F)cc2)c2c(F)c(F)ccc12)C(=O)NCC(N)=O

>  <log10 of EC50>
1.22

$$$$

Look up log10 of EC50: CC(C)(C)C(NC(=O)c1nn(Cc2ccc(F)cc2)c2ccc(F)cc12)C(=O)NCCO (stereo not shown)
-0.38

Subsequent entry: `Cc1nnc(CNC(=O)[C@@H](NC(=O)c2nn(Cc3ccc(C#N)cc3)c3ccccc23)C(C)(C)C)o1`
2.13

Moving on to the next compound: `CC(C)(C)[C@H](NC(=O)c1nn(Cc2ccc(F)cc2)c2ccccc12)C(=O)NC(CO)CO`
0.76

Another compound to look at: `CC(C)(C)[C@H](NC(=O)c1nn(Cc2ccc(F)cc2)c2ccccc12)C(N)=O`
-0.01

Another compound to check: `COC(=O)[C@@H](NC(=O)c1nn(Cc2ccccc2)c2ccccc12)C(C)(C)C`
0.38

Ok, now `CC(C)(C)[C@H](NC(=O)c1nn(Cc2ccc(C(F)(F)F)cc2)c2ccccc12)C(N)=O`
2.18

Moving on to the next compound: `CC(C)(C)[C@H](NC(=O)c1nn(Cc2ccc(C#N)cc2)c2ccccc12)C(=O)NCCO`
2.26

For `CC(C)(C)[C@H](NC(=O)c1nn(Cc2ccc(F)cc2)c2c(F)c(F)ccc12)C(=O)NCCS(N)(=O)=O` then?
1.26
